GI50 values, listed per item
Test system: VCaP cells
Assay: Cellular growth inhibition assay for VCaP cells (CellTiter-Glo 2.0, 72 hours)
Type: cell-based, human
Settings: 72 hours, CellTiter-Glo 2.0

Some solved entries appear below for comparison.
GI50 for VCaP cells with input COc1cc(O[C@H]2CC[C@H](NC(=O)c3ccc(N4CCC5(CCC(c6ccc(C7=N[C@@H](C)c8nnc(C)n8-c8sc(C)c(C)c87)cc6)C5)CC4)nn3)CC2)ccc1C#N (stereo partly shown) equals 500 to 1500 nM

GI50 for VCaP cells with input COc1cc(O[C@H]2CC[C@H](NC(=O)c3ccc(N4CC5(CC(C#Cc6ccc(C7=NC(Cc8ncco8)c8nnc(C)n8-c8sc(C)c(C)c87)cc6F)C5)C4)nn3)CC2)ccc1C#N (single isomer, unassigned) equals < 500 nM

GI50 for VCaP cells with input COc1cc(O[C@H]2CC[C@H](NC(=O)c3ccc(N4CCC5(CCC(c6ccc(C7=N[C@@H](C)c8nnc(C)n8-c8sc(C)c(C)c87)nc6)CC5)C4)nn3)CC2)ccc1C#N (stereo partly shown) equals 500 to 1500 nM

GI50 for VCaP cells with input COc1cc(O[C@H]2CC[C@H](NC(=O)c3ccc(N4CCC5(CCC(Oc6ccc(C7=N[C@@H](C)c8nnc(C)n8-c8sc(C)c(C)c87)cc6)C5)C4)nn3)CC2)ccc1C#N (stereo partly shown) [Compound I-52] equals < 500 nM

GI50 for VCaP cells with input COc1cc(O[C@H]2CC[C@H](NC(=O)c3ccc(N4CCC5(CCC(c6ccc(C7=N[C@@H](C)c8nnc(C)n8-c8sc(C)c(C)c87)cc6C(C)C)CC5)C4)nn3)CC2)ccc1C#N (stereo partly shown) equals 500 to 1500 nM

GI50 for VCaP cells with input COc1cc(O[C@H]2CC[C@H](NC(=O)c3ccc(N4CCC5(CCN(c6ccc(C7=N[C@@H](C)c8nnc(C)n8-c8sc(C)c(C)c87)cc6)CC5(F)F)C4)nn3)CC2)ccc1C#N (stereo partly shown) equals < 500 nM

Further cases:
GI50 for VCaP cells with input COc1cc(O[C@H]2CC[C@H](NC(=O)c3ccc(N4CCC5(CCC(c6ccc(C7=N[C@@H](C)c8nnc(C)n8-c8sc(C)c(C)c87)cc6)C5)C4)nn3)CC2)ccc1C#N (stereo partly shown) [Compound I-96] equals < 500 nM

----------
Test system: VCaP cells
Experiment: Cellular growth inhibition assay for VCaP cells (CellTiter-Glo 2.0, 72 hours)
Type: cell-based, human
Settings: GI50 of the top compound in the pair divided by GI50 of the lower compound
attributeMeasured: Ratio of GI50's
Lab note: jot the number down without any unit.

Some solved entries appear below for comparison.
For record COc1cc(O[C@H]2CC[C@H](NC(=O)c3ccc(N4CC5(CC(C#Cc6ccc(C7=N[C@@H](Cc8ncco8)c8nnc(C)n8-c8sc(C)c(C)c87)cc6)C5)C4)nn3)CC2)ccc1C#N the listed Ratio of GI50's is 1

For record Cc1sc2c(c1C)C(c1ccc(OC3CC4(CCN(c5ncc(C(=O)N[C@H]6C(C)(C)[C@H](Oc7ccc(C#N)c(Cl)c7)C6(C)C)cn5)CC4)C3)cc1)=N[C@@H](Cc1ncco1)c1nnc(C)n1-2 [B, reference compound] the listed Ratio of GI50's is 1.3

For record Cc1sc2c(c1C)C(c1ccc(OC3CC4(CCN(c5ccc(C(=O)N[C@H]6CC[C@H](Oc7ccc(C#N)c(Cl)c7)CC6)nn5)CC4)C3)cc1)=N[C@@H](Cc1ncco1)c1nnc(C)n1-2 [E, reference compound] the listed Ratio of GI50's is 4.4

Further cases:
For record COc1cc(O[C@H]2CC[C@H](NC(=O)c3ccc(N4CCC5(CC4)CC(Cc4ccc(C6=N[C@@H](Cc7ncco7)c7nnc(C)n7-c7sc(C)c(C)c76)cc4)C5)nn3)CC2)ccc1C#N the listed Ratio of GI50's is 1

For record COc1cc(O[C@H]2C(C)(C)[C@H](NC(=O)c3cnc(N4CCC5(CC4)CC(Cc4ccc(C6=N[C@@H](Cc7ncco7)c7nnc(C)n7-c7sc(C)c(C)c76)cc4)C5)nc3)C2(C)C)ccc1C#N the listed Ratio of GI50's is 1

For record Cc1sc2c(c1C)C(c1ccc(C#CC3CC4(C3)CN(c3ccc(C(=O)N[C@H]5CC[C@H](Oc6ccc(C#N)c(Cl)c6)CC5)nn3)C4)cc1F)=NC(Cc1ncco1)c1nnc(C)n1-2 (stereo partly drawn) [K, reference compound] the listed Ratio of GI50's is 1.5

For record Cc1sc2c(c1C)C(c1ccc(C3CCC4(CC3)CCN(c3ncc(C(=O)N[C@H]5C(C)(C)[C@H](Oc6ccc(C#N)c(Cl)c6)C5(C)C)cn3)C4)cc1)=N[C@@H](Cc1ncco1)c1nnc(C)n1-2 [D, reference compound] the listed Ratio of GI50's is 6.5

For record COc1cc(O[C@H]2CC[C@H](NC(=O)c3ccc(N4CCC5(CCC(c6ccc(C7=N[C@@H](Cc8ncco8)c8nnc(C)n8-c8sc(C)c(C)c87)cc6)CC5)C4)nn3)CC2)ccc1C#N (stereo partly drawn) the listed Ratio of GI50's is 1

For record Cc1sc2c(c1C)C(c1ccc(C3CCC4(CC3)CCN(c3ccc(C(=O)N[C@H]5CC[C@H](Oc6ccc(C#N)c(Cl)c6)CC5)nn3)C4)cc1)=N[C@@H](Cc1ncco1)c1nnc(C)n1-2 (stereo partly drawn) [J, reference compound] the listed Ratio of GI50's is 3.0

Values were extracted from patent US12668599B2.
